# Test system: Streptococcus Pyogenes
# protocol: in vitro antibacterial activity, agar dilution method (MIC)
# Type: cell-based
# measurement.conditions: Streptococcus pyogenes, strain 930 CONST; BHI agar, 20-24 hours; read-out: MIC
measured.attribute: MIC

CCC1OC(=O)CC(O)C(C)C(OC2OC(C)C(O)C(N(C)C)C2O)C(CC=O)CC(C)C(N(C)C)CCC(C)=CC1COC(C)=O (stereo not drawn)
> 100 µg/mL
CCC1OC(=O)CC(O)C(C)C(OC2OC(C)CC(N(C)C)C2O)C(CC=O)CC(C)C(N(C)C)CCC(C)=CC1COC(C)=O (stereo not drawn)
50 µg/mL

Now for a further compound.
### Prompt Which MIC is listed for CC[C@H]1OC(=O)C[C@@H](O)[C@H](C)[C@@H](O[C@@H]2O[C@H](C)C[C@H](N(C)C)[C@H]2O)[C@@H](CC=O)C[C@@H](C)C(=O)/C=C/[C@]2(C)O[C@H]2[C@@H]1C [Rosaramicin, reference compound] ?
### Response > 100 µg/mL
